This collection of values is drawn from ChEMBL document CHEMBL1201862.

The following molecules are shown together with reported GI50 values.
System: KM12
Assay: NCI tumour cell line growth inhibition, 48 h
Active and inactive are the calls of the source. No stated cut-off is given here; in the data, active = GI50 up to about 1.1 µM and inactive = higher.

molecule	GI50
CC1(Cc2cc3c(cc2C2(c4ccc([N+](=O)[O-])cc4)OCCO2)OCO3)OCCO1	72.3 µM (inactive)
COC1(OC)CCC2(C)OC(c3ccccc3)C1O2 (centres undefined)	> 100 µM (inactive)
COC(=O)/C(C#N)=C1\NC(=O)CC(c2ccccc2)C1C#N (centres undefined)	> 100 µM (inactive)
CSCCCCCCCCCCOc1ccc(C=C2C(=C(C#N)C#N)c3ccccc3C2=C(C#N)C#N)cc1	19 µM (inactive)
O=C(O)CCC(NC(=O)c1ccc(Nc2cnc3cc(C(F)(F)F)ccc3n2)cc1)C(=O)O (centres undefined)	> 100 µM (inactive)
C=CCOc1ccc(C2c3c(n[nH]c3O)CC(O)(OCC)C2C(=O)OCC)cc1OC (centres undefined)	> 100 µM (inactive)
CCc1cccc(=O)c([O-])c1.CCc1cccc(=O)c([O-])c1.[Bi+3].[Cl-]	12.4 µM (inactive)
CC(C)OP(=O)(OC(C)C)/C(C#N)=C/c1ccco1	> 100 µM (inactive)
Cc1ccc(NC(=O)/C=C/c2ccccc2)c(C)c1	> 100 µM (inactive)

====

Measured GI50, listed per entry.
Test system: OVCAR-8
Test: NCI tumour cell line growth inhibition, 48 h
Calls of active or inactive are those of the source. No stated cut-off is given here; in the data, active = GI50 up to about 1.1 µM and inactive = higher.

compound	systemTested	GI50
COC(=O)/C(C#N)=C1\NC(=O)CC(c2ccccc2)C1C#N (configuration not stated)	OVCAR-8	> 100 µM (inactive)
Cc1ccc2c(c1)C(=O)/C(=C1/CCc3ccc(C)cc31)C2	OVCAR-8	48.6 µM (inactive)
O=CC(=C(I)I)c1ccccc1	OVCAR-8	2.46 µM (inactive)
O=S1(=O)N2CN3CN(C2)CN1C3	OVCAR-8	> 86.5 µM (inactive)
O=C(NNCc1ccco1)c1cc2ccccc2[nH]1	OVCAR-8	> 53.1 µM (inactive)
COc1cc2c(cc1OC)C1CN3CCCC3C(O)C1c1cc(OC)c(OC)cc1-2 (configuration not stated)	OVCAR-8	> 100 µM (inactive)
c1ccc2c(CN3CCN(Cc4c[nH]c5ccccc45)CC3)c[nH]c2c1	OVCAR-8	19 µM (inactive)

====

Tested on: M14
Test: NCI tumour cell line growth inhibition, 48 h
Calls of active or inactive are those of the source. Rule as the data show it: active = GI50 up to about 1.1 µM and inactive = higher.
Classes used: YES for active, NO for inactive

compound	label
Cc1cc(S(=O)(=O)N/C(=C(\C#N)C(=O)c2ccccc2)[n+]2ccc(N(C)C)cc2)c([S-])cc1Cl	NO
COc1cc([N+](=O)[O-])c(OC)c2c(Nc3ccc(S(=O)(=O)O)c4cc(S(=O)(=O)O)cc(S(=O)(=O)O)c34)cc(C)nc12	NO
CCOC(=O)/C(C#N)=C(N)/C(=N\Nc1cccc(C(F)(F)F)c1)C(=O)OCC	NO
O=C(/C=C/c1ccccc1)CCC1C(=O)NC(=S)NC1=O	NO
COC(=O)C1=CC2C=CC(C1C(=O)OC)C1C(C(=O)OC)=C(C(=O)OC)C(C(=O)OC)=C(C(=O)OC)C21OC (centres undefined)	NO
COc1ccc(CCNCc2cccc(OC)c2OC)cc1OC	NO
CSCCCCCCCCCCOc1ccc(C=C2C(=C(C#N)C#N)c3ccccc3C2=C(C#N)C#N)cc1	NO
CCOC(=O)c1csc(-c2nc(CCNC(=O)c3ccccc3)sc2Cl)n1	NO
COc1nc(N)c(NC(C)=O)c(=O)n1C	NO
O=C(N/C(=C\c1ccccc1)c1nc2ccccc2c(=O)o1)c1ccccc1	NO
COc1cc(OC)c(CSCC(NC(=O)OCC2c3ccccc3-c3ccccc32)C(=O)O)c(OC)c1 (centres undefined)	NO
CN(C)NC(=S)Nc1ccccc1Br	NO
COc1ccccc1Cn1c2c(c3cc(O)ccc31)C(=O)c1ccccc1C2=O	NO
CC(NP(=O)(c1ccccc1)c1ccccc1)c1ccccc1 (centres undefined)	NO
CSC(SC)=C1C(=O)NN=C1C	NO
Cc1cc(Cl)ccc1NC(=O)CCCC(=O)C(C(=O)c1ccccc1)c1ccccc1 (centres undefined)	NO
CO[C@H]1O[C@@H]2CO[C@@H](c3ccccc3)O[C@H]2[C@@H]2C/C=C\CCC[C@@]12O	NO
COc1cccc2c1NC(=O)Cc1c-2[nH]c2ccccc12	NO
CCOC(=O)CCC(=O)C1c2cccc(O)c2C(=O)c2c(O)cc(C)cc21 (centres undefined)	NO
C/C(=N\Nc1nc2ccccc2[nH]1)c1cc2ccccc2cn1	YES
CCCCCCCCCCCCCCCCNc1ccc2c(c1)OCCOCCOCCOCCO2	NO
Cc1ccccc1NC(=S)N/N=C1\C(=O)Nc2ccccc21	NO
COc1cc(/C=C2\CCC(C)C3=C2NC(=S)NC3c2cc(OC)c(OC)c(OC)c2)cc(OC)c1OC (centres undefined)	NO
C=C(Cl)C(Cl)(CBr)CCC(Cl)C(C)C (centres undefined)	NO
FC(F)(Sc1ncc[nH]1)c1nc2ccccc2o1	NO
c1ccc2c(CN3CCN(Cc4c[nH]c5ccccc45)CC3)c[nH]c2c1	NO
CCOC(=O)c1c(Br)c(-c2ccc([N+](=O)[O-])cc2)c(Br)n1C	NO
Br[Se]c1ccccn1	NO
COc1cc2c(cc1OC)C1CN3CCCC3C(O)C1c1cc(OC)c(OC)cc1-2 (centres undefined)	NO
